# System: SH-SY5Y
# test.details: Cytoprotective activity against H2O2-induced oxidative stress in human SH-SY5Y cells assessed as increase in cell viability preincubated for 24 hrs followed by H2O2 addition and measured after 1 hr by MTT assay
# Type: functional, cell-based
quantity.kind: Activity

- COc1ccc(-c2nc3nnccn3c2-c2ccc([N+](=O)[O-])cc2)cc1: Dose-dependent effect
- COc1ccc(-c2nc3nnccn3c2-c2cccs2)cc1: Dose-dependent effect
- COc1ccc(-c2nc3nnccn3c2-c2ccncc2)cc1: Dose-dependent effect
- COc1ccc(-c2nc3nnccn3c2-c2ccc(OC)cc2)cc1: Dose-dependent effect
- COc1ccc(-c2cn3ccnnc3n2)cc1: Dose-dependent effect
- FC(F)(F)c1ccc(-c2cn3ccnnc3n2)cc1: Dose-dependent effect
